- System: S1507-2
- assay-procedure: relative IC50 (inflection point of fitted dose-response curve, CellTox-Green cytotoxicity, 72 h; top asymptote may be below 50%); higher = less potent
measure: relative IC50 (nM)
Lab book: enter the figure in nM, no units written.

| molecule | quantitative-result |
| --- | --- |
| CCN(CC)CCCC(C)Nc1c2ccc(Cl)cc2nc2ccc(OC)cc12 (stereo not drawn) [Mepacrine aq] | 2200 |
| COc1cc(F)c(F)c(Nc2ccc(I)cc2F)c1NS(=O)(=O)C1(C[C@H](O)CO)CC1 [Refametinib] | 1860 |
| CC1(COc2ccc3c(c2)ncn3-c2ccc3cccc(N4CCC(N)CC4)c3n2)COC1 [Crenolanib] | 1950 |
| Nc1cc(C(F)(F)F)c(-c2cc(N3CCOCC3)nc(N3CCOCC3)n2)cn1 [Buparlisib] | 2960 |

Moving on to the next molecule.
Which relative IC50 is listed for Cn1cc(CNCC2CCN(c3ncc(C(=O)NO)cn3)CC2)c2ccccc21 [Quisinostat] ?
44.8

* * *

- Tested on: S462
- assay-procedure: relative IC50 (inflection point of fitted dose-response curve, CellTiter-Glo viability, 72 h; top asymptote may be below 50% inhibition); higher = less potent
measure: relative IC50 (µM)
Lab book: enter the figure in µM, no units written.

The examples below pair each entry with its known result.
| smi | measure | unit-of-measurement | quantitative-result |
| --- | --- | --- | --- |
| Cc1ccc(NC(=O)c2ccc(CN3CCN(C)CC3)cc2)cc1Nc1nc(-c2cccnc2)cs1 | relative IC50 | µM | 3.3 |
| C=CCc1cccc(/C=N/NC(=O)CN2CCN(Cc3ccccc3)CC2)c1O | relative IC50 | µM | 3.49 |

Please provide the recorded relative IC50 for O=C(/C=C/c1cccnc1)NCCCCC1CCN(C(=O)c2ccccc2)CC1 , tested on S462.
0.00441

Lookup O=C1c2c(O)ccc(O)c2C(=O)c2c(NCCNCCO)ccc(NCCNCCO)c21
0.213

Lookup COC(=O)C[C@](O)(CCCC(C)(C)O)C(=O)O[C@@H]1C(OC)=C[C@]23CCCN2CCc2cc4c(cc2[C@H]13)OCO4
0.0238

Lookup CS(=O)(=O)N1CCN(Cc2cc3nc(-c4cccc5[nH]ncc45)nc(N4CCOCC4)c3s2)CC1
1.15

* * *

- Test system: ST8814
- assay-procedure: relative IC50 (inflection point of fitted dose-response curve, CellTox-Green cytotoxicity, 72 h; top asymptote may be below 50%); higher = less potent
Measured relative IC50 values are reported for all entries that follow.
Lab book: enter the figure in µM, no units written.

| molecule | quantitative-result |
| --- | --- |
| O=c1[nH]c(=O)n([C@H]2C[C@H](O)[C@@H](CO)O2)cc1F [Floxuridine] | 0.729 |
| Cn1cc(CNCC2CCN(c3ncc(C(=O)NO)cn3)CC2)c2ccccc21 [Quisinostat] | 0.0561 |
| COc1ccc(-c2cc3c(C)nc(N)nc3n([C@H]3CC[C@H](OCCO)CC3)c2=O)cn1 | 1.52 |

Which relative IC50 is listed for CO[C@@]12[C@H](COC(N)=O)C3=C(C(=O)C(C)=C(N)C3=O)N1C[C@@H]1N[C@@H]12 [Mitomycin C] ?
3.08

Lookup CCN(CC)CCCC(C)Nc1c2ccc(Cl)cc2nc2ccc(OC)cc12 (stereo unspecified) [Mepacrine aq]
2.91

Lookup CN(C)CCOc1ccc(/C(=C(/CCCl)c2ccccc2)c2ccccc2)cc1 [Toremifene]
2.82

Value source: the supplement of paper PMC5579334
